Record set of IC50 for target or system UniProt Q72874.
Provide only the numeric value, understood in nM.

> print(dat)
                                smiles.code  assay.value
1  Cc1cccc(C[C@@H](O)[C@H](Cc2ccccc2)NC(=O)[C@H](CC(N)=O)NC(=O)c2ccc3ccccc3n2)c1C(=O)NC(C)(C)C           28
2  CC(C)(C)NC(=O)c1c(C[C@@H](O)[C@H](Cc2ccccc2)NC(=O)[C@H](CC(N)=O)NC(=O)c2ccc3ccccc3n2)ccc2ccccc12          3.5
3  CC(C)(C)NC(=O)c1cc2ccccc2cc1C[C@@H](O)[C@H](Cc1ccccc1)NC(=O)[C@H](CC(N)=O)NC(=O)c1ccc2ccccc2n1          149

# input for lookup
Kindly indicate its recorded IC50. Item: Cc1ccc(C(=O)NC(C)(C)C)c(C[C@@H](O)[C@H](Cc2ccccc2)NC(=O)[C@H](CC(N)=O)NC(=O)c2ccc3ccccc3n2)c1
2.2
